Biological target: UniProt P21917
Sequence (P21917 whole entry): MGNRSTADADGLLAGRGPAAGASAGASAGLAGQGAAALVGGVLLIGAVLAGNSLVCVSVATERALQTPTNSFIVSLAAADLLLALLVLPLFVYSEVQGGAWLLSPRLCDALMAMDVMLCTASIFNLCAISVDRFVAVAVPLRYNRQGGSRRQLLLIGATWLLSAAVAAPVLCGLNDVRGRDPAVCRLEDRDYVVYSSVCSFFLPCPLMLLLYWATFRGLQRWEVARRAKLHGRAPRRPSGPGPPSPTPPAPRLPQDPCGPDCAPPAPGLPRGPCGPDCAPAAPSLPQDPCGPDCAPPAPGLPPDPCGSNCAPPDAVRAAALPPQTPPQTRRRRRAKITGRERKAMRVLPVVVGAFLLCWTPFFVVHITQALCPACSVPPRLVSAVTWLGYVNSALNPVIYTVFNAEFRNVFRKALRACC
Test: The compound was tested for CNS binding affinity towards Dopamine receptor D4 from cloned Human membranes.
property: pKi
The read-out pKi is expressed as -log10 of concentration in moles per litre.

The reported value for COc1ccc(N2CCN(CCC3OCCc4ccccc43)CC2)cc1 (configuration not stated) in terms of pKi is 8.62

====

Biological target: 5-hydroxytryptamine receptor 1A (Homo sapiens)
Assay: The compound was tested for CNS binding affinity towards 5-hydroxytryptamine 1A receptor from cloned Human membranes.
Property: pKi; scope: individual compounds
The read-out pKi is expressed as -log10 of concentration in moles per litre.

// solved cases for pKi follow
CNC(=O)c1ccc2c(c1)CCO[C@H]2CCN1CCN(c2ccc(OC)cc2)CC1 :: 5.96
COc1ccc(N2CCN(CCC3OCCc4ccccc43)CC2)cc1 (stereo not given) :: 6.05

The reported value for COc1ccc(N2CCN(CC[C@@H]3OCCc4cc(C(N)=O)ccc43)CC2)cc1 in terms of pKi is 6.01

====

Property: Ki; scope: individual molecules
Target: 5-hydroxytryptamine receptor 1B (Gorilla gorilla, UniProt Q9N2B7)
Sequence (Q9N2B7 whole entry): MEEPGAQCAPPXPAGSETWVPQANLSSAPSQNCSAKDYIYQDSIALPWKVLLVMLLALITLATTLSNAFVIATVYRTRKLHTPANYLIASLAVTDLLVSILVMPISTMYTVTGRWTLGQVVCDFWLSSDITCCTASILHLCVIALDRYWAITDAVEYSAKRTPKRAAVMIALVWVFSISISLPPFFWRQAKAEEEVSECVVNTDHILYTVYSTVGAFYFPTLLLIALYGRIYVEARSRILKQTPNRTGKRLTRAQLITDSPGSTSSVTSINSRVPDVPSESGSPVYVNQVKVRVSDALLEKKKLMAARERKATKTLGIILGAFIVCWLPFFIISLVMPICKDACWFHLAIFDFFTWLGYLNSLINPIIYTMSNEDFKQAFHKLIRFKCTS
Kindly answer with a numeric value in µM, unit omitted.

CNC(=O)c1ccc2c(c1)CCO[C@@H]2CCN1CCN(c2ccc(OC)cc2)CC1 :: 150

Turning now to a further molecule:
The reported value for COc1ccc(N2CCN(CCC3OCCc4ccccc43)CC2)cc1 (configuration not stated) in terms of Ki is 7.24

====

Property: Ki; scope: individual molecules
Target: D(2) dopamine receptor (Homo sapiens, UniProt P14416)
Sequence (P14416 whole entry): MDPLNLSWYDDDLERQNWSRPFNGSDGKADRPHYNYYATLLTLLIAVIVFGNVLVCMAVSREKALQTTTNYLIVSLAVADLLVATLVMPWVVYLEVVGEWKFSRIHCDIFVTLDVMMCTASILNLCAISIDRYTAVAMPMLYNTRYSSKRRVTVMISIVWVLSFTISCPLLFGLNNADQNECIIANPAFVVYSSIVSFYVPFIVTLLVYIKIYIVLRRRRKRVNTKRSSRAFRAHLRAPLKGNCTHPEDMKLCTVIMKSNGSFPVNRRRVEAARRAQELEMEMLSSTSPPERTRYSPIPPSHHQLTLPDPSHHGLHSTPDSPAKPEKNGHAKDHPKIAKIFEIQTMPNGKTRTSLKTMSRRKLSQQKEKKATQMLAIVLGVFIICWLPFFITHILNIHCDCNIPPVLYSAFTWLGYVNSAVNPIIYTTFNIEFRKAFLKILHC
Test: The compound was tested for CNS binding affinity towards Dopamine receptor D2 from cloned Human membranes.

CNC(=O)c1ccc2c(c1)CCO[C@H]2CCN1CCN(c2ccc(OC)cc2)CC1 :: 241 nM
COc1ccc(N2CCN(CCC3OCCc4ccccc43)CC2)cc1 (stereo unspecified) :: 1430 nM
COc1ccc(N2CCN(CC[C@H]3OCCc4cc(C(N)=O)ccc43)CC2)cc1 :: 386 nM

The reported value for CNS(=O)(=O)Cc1ccc2[nH]cc(CCN(C)C)c2c1 in terms of Ki is > 218 nM

The reported value for CNC(=O)c1ccc2c(c1)CCO[C@@H]2CCN1CCN(c2ccc(OC)cc2)CC1 in terms of Ki is 158 nM

The reported value for COc1ccc(N2CCN(CC[C@@H]3OCCc4cc(C(N)=O)ccc43)CC2)cc1 in terms of Ki is 325 nM

====

Target: UniProt P08908
Sequence (P08908 whole entry): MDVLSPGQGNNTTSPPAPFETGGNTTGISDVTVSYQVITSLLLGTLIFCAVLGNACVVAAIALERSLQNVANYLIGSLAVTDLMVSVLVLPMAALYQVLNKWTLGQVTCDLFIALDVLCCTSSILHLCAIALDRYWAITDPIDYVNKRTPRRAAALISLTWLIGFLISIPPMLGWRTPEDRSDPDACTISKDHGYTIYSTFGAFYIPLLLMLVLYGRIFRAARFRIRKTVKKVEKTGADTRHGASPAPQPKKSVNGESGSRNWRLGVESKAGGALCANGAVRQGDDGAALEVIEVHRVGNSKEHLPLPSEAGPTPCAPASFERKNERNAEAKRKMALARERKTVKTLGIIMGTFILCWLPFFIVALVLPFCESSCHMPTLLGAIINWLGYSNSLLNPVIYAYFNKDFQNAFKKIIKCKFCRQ
Experiment: The compound was tested for CNS binding affinity towards 5-hydroxytryptamine 1A receptor from cloned Human membranes
property: Ki

The reported value for COc1ccc(N2CCN(CCC3OCCc4cc(C(N)=O)ccc43)CC2)cc1 (stereo unspecified) in terms of Ki is 2460 nM
